B1: HSP90AB1 (parent)
chain: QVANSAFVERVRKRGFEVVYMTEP

- Variants of: B1
- experiment-notes: protein stability index of a GFP-peptide fusion (GPS, HEK-293T) (PSI 1-6); higher = more stable;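 further: lentivirally expressed fusions sorted by FACS into six bins by GFP to DsRed ratio, PSI derived from sequencing read proportions per bin multiplied by bin number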
- condition: c terminus: a fixed tail appended
# binarize protein stability index: threshold 2 inclusive, high side Fulfilled, low side Not fulfilled

Q1Y; Fulfilled
M21F; Fulfilled
V19A; Fulfilled
Q1W; Not fulfilled
K13Q; Fulfilled

## Input State whether the measured protein stability index reaches 2, counting equality as reaching it, for V2D
## Output Fulfilled

## Input State whether the measured protein stability index reaches 2, counting equality as reaching it, for P24N
## Output Fulfilled

## Input State whether the measured protein stability index reaches 2, counting equality as reaching it, for A6Y
## Output Not fulfilled
